Test Target: human GPR40 (Homo sapiens, UniProt O14842)
Sequence (O14842 whole entry): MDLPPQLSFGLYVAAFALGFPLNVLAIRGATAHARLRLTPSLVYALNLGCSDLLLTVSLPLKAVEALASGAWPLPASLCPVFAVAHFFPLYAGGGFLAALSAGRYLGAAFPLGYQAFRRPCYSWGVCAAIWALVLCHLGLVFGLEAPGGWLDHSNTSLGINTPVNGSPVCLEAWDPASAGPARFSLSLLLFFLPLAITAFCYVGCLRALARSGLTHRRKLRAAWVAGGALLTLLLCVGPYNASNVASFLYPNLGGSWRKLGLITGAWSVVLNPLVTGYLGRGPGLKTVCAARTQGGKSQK
Assay Protocol: FDSS-based intracellular calcium assay (Human GRP40 in vitro assay)
Format: cell-based
Design: 3xFLAG; expressed in transfected cells
Measurement Conditions: cells expressing GPR40, intracellular Ca2+ response, FDSS reader; read-out: hGPR40 EC50
Where a name gives a salt, the structure may show the parent alone.
Property Name: EC50 (µM)

As a guide, the following entries are already answered.
INSERT INTO measurements (compound, uom, obs_value) VALUES
  ('CCOc1ccc(F)c(N2CCC(Oc3ccc(N4C[C@H](OC)[C@@H](C5CCC5)[C@@H]4CC(=O)O)cc3)CC2)c1 [Example 92, TFA]', 'µM', 3.7),
  ('COc1ccc(F)c(N2CCC(Oc3ccc(N4C[C@H](OC)C[C@@H]4CC(=O)O)cc3)CC2)c1Cc1ccccc1 [Example 32, TFA]', 'µM', 1.7),
  ('CCOc1ccc(F)c(N2CCC(Oc3ccc(N4C[C@H](Oc5ccc(Cl)cc5)C[C@@H]4CC(=O)O)cc3)CC2)c1', 'µM', 1.6);

[a] CCOc1ccc(F)c(N2CCC(Oc3ccc(N4C[C@H](Oc5cccc(Cl)c5)C[C@@H]4CC(=O)O)cc3)CC2)c1
[b] COCC1CN(c2cc(OC)ncc2Cl)CCC1Oc1ccc(N2C[C@H](C(F)(F)F)C[C@@H]2CC(=O)O)cc1 (single isomer, unassigned) [Example 172, Isomer 2, TFA]
[c] CCOc1ccc(F)c(N2CCC(Oc3ccc(N4C[C@H](OC)[C@@H](C)[C@@H]4CC(=O)O)c(F)c3)CC2)c1
Sort entries by EC50 from minimum to maximum value. Give the order by naming the labels one after another as requested.
a, c, b

---

Test Target: human GPR40 (Homo sapiens)
Assay Protocol: FDSS-based intracellular calcium assay (Human GRP40 in vitro assay)
Assay type: cell-based
Parameters: 3xFLAG; expressed in transfected cells
Measurement Conditions: cells expressing GPR40, intracellular Ca2+ response, FDSS reader; read-out: hGPR40 EC50
Counter-ions that a name gives are not always drawn.
Property Name: EC50 (nM)

As a guide, the following entries are already answered.
INSERT INTO measurements (compound, uom, obs_value) VALUES
  ('COc1cc(N2CCC(Oc3ncc(N4C[C@H](F)[C@@H](C)[C@@H]4CC(=O)O)cc3F)C(C)C2)c(Cl)cn1 (stereo partly drawn)', 'nM', 110),
  ('O=C(O)C[C@H]1C[C@@H](C(F)(F)F)CN1c1ccc(OC2CCN(c3ccccc3F)CC2)cc1 [Example 20, TFA]', 'nM', 750),
  ('COc1cc(N2CCC(Oc3ncc(N4C[C@H](OC)[C@@H](C)[C@H]4CC(=O)O)cc3F)C(C)C2)c(Cl)cn1 (stereo partly drawn)', 'nM', 500);

[I] COc1cc(N2CCC(Oc3ccc(N4C[C@H](OC)[C@@H](C)[C@@H]4CC(=O)O)cn3)CC2)c(C2CCCC2(C)C)cn1 (single isomer, unassigned) [Example 151, Isomer 2, HCl]
[II] COc1ccc(F)c(N2CCC(N(C)c3ccc(N4C[C@H](C(F)(F)F)C[C@@H]4CC(=O)O)cc3)CC2)c1 [Example 9, TFA]
Returns the identifier with the smallest measured EC50 among I and II . Write down the label of the entry you select.
I
(I: 140 nM, II: 290 nM)

---

Test Target: human GPR40 (Homo sapiens, UniProt O14842)
Assay Protocol: FDSS-based intracellular calcium assay (Human GRP40 in vitro assay)
Type: cell-based
Set-up: 3xFLAG; expressed in transfected cells
Measurement Conditions: cells expressing GPR40, intracellular Ca2+ response, FDSS reader; read-out: hGPR40 EC50
pEC50: −log10 of the molar value. Structures can show the parent of a compound that is named as a salt.
Property Name: pEC50

As a guide, the following entries are already answered.
INSERT INTO results (molecule, obs_value) VALUES
  ('COc1cc(N2CCC(Oc3ccc(N4C[C@H](F)[C@@H](C)[C@@H]4CC(=O)O)cc3)C(C)C2)c(Cl)cn1 (stereo partly drawn)', 7.59),
  ('COc1ccc(F)c(N2C[C@@H](C)[C@@H](Oc3ccc(N4C[C@H](OC)C[C@@H]4CC(=O)O)cc3)[C@@H](C)C2)c1 [Example 56, HCl]', 5.60),
  ('COCC1CN(c2cc(OC)ncc2Cl)CCC1Oc1ccc(N2C[C@H](C(F)(F)F)C[C@@H]2CC(=O)O)cc1 (single isomer, unassigned) [Example 172, Isomer 1, TFA]', 5.74);

[P] COc1cc(N2CCC(Oc3ccc(N4C[C@H](C(F)(F)F)C[C@@H]4CC(=O)O)cc3Cl)C(C)C2)c(Cl)cn1 (stereo partly drawn)
[Q] CCOc1ccc(F)c(N2CCC(Oc3ccc(N4C[C@H](Oc5ccccc5C)C[C@@H]4CC(=O)O)cc3)CC2)c1
[R] CCOc1ccc(F)c(N2CCC(Oc3ccc(N4C[C@H](OC)[C@@H](C5CC5)[C@@H]4CC(=O)O)cc3)CC2)c1 [Example 90, TFA]
Rank descending by pEC50. Give the order by naming the labels one after another as requested.
R, P, Q
(R: 6.72, P: 6.30, Q: 6.02)

---

Test Target: human GPR40 (Homo sapiens)
Assay Protocol: FDSS-based intracellular calcium assay (Human GRP40 in vitro assay)
Format: cell-based
Set-up: 3xFLAG; expressed in transfected cells
Measurement Conditions: cells expressing GPR40, intracellular Ca2+ response, FDSS reader; read-out: hGPR40 EC50
Where a name gives a salt, the structure may show the parent alone.
Property Name: EC50 (µM)

[1] COc1cc(N2CCC(Oc3ccc(N4C[C@H](C(F)(F)F)C[C@@H]4CC(=O)O)c(F)c3F)C(C)C2)c(Cl)cn1 (stereo partly drawn)
[2] COc1cc(N2CCC(Oc3ccc(N4C[C@H](OC)[C@@H](C)[C@@H]4CC(=O)O)nc3)C(C)C2)c(Cl)cn1 (stereo partly drawn)
[3] CCOc1ccc(F)c(N2CCC(Oc3ccc(N4C[C@H](C(F)(F)F)C[C@@H]4CC(=O)O)cc3)C(CC(C)C)C2)c1 (single isomer, unassigned) [Example 35, Isomer 1, HCl]
# rank above entries by EC50 (max first, min last) Give the order by naming the labels one after another as requested.
3, 2, 1

---

Test Target: human GPR40 (Homo sapiens, UniProt O14842)
pEC50: −log10 of the molar value. Where a name gives a salt, the structure may show the parent alone.
Property Name: pEC50

INSERT INTO assay_data (compound, property_name, obs_value) VALUES
  ('COc1ccc(F)c(N2CCC(Cc3ccc(N4C[C@H](C(F)(F)F)C[C@@H]4CC(=O)O)cc3)CC2)c1 [Example 16, HCl]', 'pEC50', 7.14);

[a] COc1cc(N2CCC(Oc3ccc(N4C[C@H](OC)[C@@H](C)[C@@H]4CC(=O)O)cc3F)C(C)C2)c(Cl)cn1 (stereo partly drawn) [Example 98]
[b] COc1ccc(F)c(N2CCC(Oc3ccc(N4CCCC4CC(=O)O)cc3)CC2)c1 (single isomer, unassigned) [Example 48, Isomer 2]
Task for the reader: decide whether a or b has the larger pEC50. Write down the label of the entry you select.
a

---

These records show EC50 for human GPR40 (Homo sapiens, UniProt O14842).
Where a name gives a salt, the structure may show the parent alone.
Property Name: EC50 (nM)

INSERT INTO measurements (molecule, test_target, uom, obs_value) VALUES
  ('COc1ccc(F)c(N2CCC(Oc3ccc(N4CC(F)(F)C[C@@H]4CC(=O)O)cc3)C(C)C2)c1 (single isomer, unassigned) [Example 53, Isomer 2, HCl]', 'human GPR40 (Homo sapiens, UniProt O14842)', 'nM', 49),
  ('COc1cc(N2CCC(Cc3ccc(N4C[C@H](OC)C[C@@H]4CC(=O)O)cc3)CC2)c(Cl)cn1', 'human GPR40 (Homo sapiens, UniProt O14842)', 'nM', 950);

[A] COc1cc(N2CCC(Oc3ccc(N4C[C@H](OC)[C@@H](C)[C@@H]4CC(=O)O)cn3)CC2)c(C2CCCC2(C)C)cn1 (single isomer, unassigned) [Example 151, Isomer 1, HCl]
[B] COc1ccc(C2CCCC2)c(N2CCC(Oc3ccc(N4C[C@H](OC)C[C@@H]4CC(=O)O)cc3)CC2)c1
[C] COc1ccc(F)c(N2CCC(Oc3ccc(N4C[C@H](OC)C[C@@H]4CC(=O)O)cc3)C(C)C2)c1 (single isomer, unassigned) [Example 52, Isomer 2]
Sort entries by EC50 from minimum to maximum value. Give the order by naming the labels one after another as requested.
A, B, C

---

Test Target: human GPR40 (Homo sapiens)
Assay Protocol: FDSS-based intracellular calcium assay (Human GRP40 in vitro assay)
Assay type: cell-based
Design: 3xFLAG; expressed in transfected cells
Measurement Conditions: cells expressing GPR40, intracellular Ca2+ response, FDSS reader; read-out: hGPR40 EC50
pEC50: −log10 of the molar value. Counter-ions that a name gives are not always drawn.
Property Name: pEC50

[P] COc1ccc(C2CCCC2(C)C)c(N2CCC(Oc3ccc(N4C[C@H](OC)C[C@@H]4CC(=O)O)cc3)CC2)c1 (single isomer, unassigned) [Example 65, Isomer 1]
[Q] COc1cc(N2CCC(Oc3ccc(N4CC[C@@H](C)[C@@H]4CC(=O)O)cc3)C(C)C2)c(Cl)cn1 (stereo partly drawn) [Example 154, TFA]
[R] COc1cc(N2CCC(Oc3ccc(N4C[C@H](OC)[C@@H](C)[C@@H]4CC(=O)O)cn3)CC2)c(C2=CCCC2(C)C)cn1 [Example 152, HCl]
rank_up(items): orders items by reported pEC50 in ascending numerical order. Give the order by naming the labels one after another as requested.
Q, R, P
(Q: 6.96, R: 7.17, P: 7.48)

Recorded values, source patent US9714231B2.
